System: LXF-289
PROTOCOL_SUMMARY: relative viability (nuclei count vs DMSO), 5 days (fraction); higher = more cells survive
CONDITIONS: first compound 158.11 µM
Provide the recorded relative viability for the entries that follow.
One number for each entry.

COMPOUND: O=C(O)CCCCC(CCSCc1ccccc1)SCc1ccccc1 (centres undefined) [CPI-613] + Cc1cc(Nc2cc(N3CCN(C)CC3)nc(Sc3ccc(NC(=O)C4CC4)cc3)n2)n[nH]1 [Tozasertib] (partner 0.1 µM)
TEST_SYSTEM: LXF-289
PROPERTY_NAME: relative viability
VALUE_MEASURED: 0.0521
//
COMPOUND: O=C(O)CCCCC(CCSCc1ccccc1)SCc1ccccc1 (centres undefined) [CPI-613] + CS(=O)(=O)N1CCN(Cc2cc3nc(-c4cccc5[nH]ncc45)nc(N4CCOCC4)c3s2)CC1 [Pictilisib] (partner 1 µM)
TEST_SYSTEM: LXF-289
PROPERTY_NAME: relative viability
VALUE_MEASURED: 0.479
//
COMPOUND: O=C(O)CCCCC(CCSCc1ccccc1)SCc1ccccc1 (centres undefined) [CPI-613] + Cc1nc(Nc2ncc(C(=O)Nc3c(C)cccc3Cl)s2)cc(N2CCN(CCO)CC2)n1 [Dasatinib] (partner 0.075 µM)
TEST_SYSTEM: LXF-289
PROPERTY_NAME: relative viability
VALUE_MEASURED: 0.203

Please examine the following record next.
Prompt: I am curious: what relative viability value has been reported for O=C(O)CCCCC(CCSCc1ccccc1)SCc1ccccc1 (centres undefined) [CPI-613] + CCNC(=O)c1noc(-c2cc(C(C)C)c(O)cc2O)c1-c1ccc(CN2CCOCC2)cc1 [Luminespib] (partner 0.01 µM) ?
Completion: 0.206
